Experiment: NCI Yeast Anticancer Drug Screen. Data for the sgs1 strain (AID 173);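 note: 0% = growth of vehicle-only control cultures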
Conditions: S. cerevisiae sgs1 mutant, at 1.2 µM, hits give high values
This is part of a sample that, as a whole, favours compounds with a hit. Of some 79,000 tested, about 15% had one in any assay.
Listed here are molecules together with their documented growth inhibition.
// return numeric value only (unit: %, not printed)

Answered examples (4):
CC1CCCN(CCc2ccccc2)CC1 (stereo unspecified)	0
CCC1(OC(=O)CN)C(=O)OCc2c1cc1n(c2=O)Cc2cc3ccccc3nc2-1 (stereo unspecified)	8
O=[N+]([O-])c1ccc(-n2nc3ccc4c(no[n+]4[O-])c3[n+]2[O-])c([N+](=O)[O-])c1	-1
O=Cc1ccc(C(F)(F)F)cc1.[C-]#[O+].[C-]#[O+].[C-]#[O+].[Cr]	12

Measured growth inhibition of C[C@]12CCC(=O)C=C1CC[C@@H]1C2CC[C@@]2(C)C1CC[C@@H]2OC(=O)C12OC1CCC2=O (stereo partly specified) : 18

Measured growth inhibition of `CN(C)CCSC1=Nc2ccc(Cl)cc2C(c2ccccc2Cl)=NC1` : -2

Measured growth inhibition of `Oc1cccc2nc3ccccc3nc12` : -43

Measured growth inhibition of CC(Cc1ccccc1)N(C)Cc1nc(C2CCC([N+](=O)[O-])O2)no1 (stereo unspecified) : -26

Measured growth inhibition of `C=CC[N+]12CN3CN(CN(C3)C1)C2` : -20

Measured growth inhibition of C[C@@]12CCC(=O)C=C1CC[C@H]1C2=CC[C@]2(C)C1CC[C@@]2(C)O (stereo partly specified) : 1

Measured growth inhibition of `O=[N+]([O-])c1ccc(N2CCC(CCCC3CCN(c4ccc([N+](=O)[O-])cc4[N+](=O)[O-])CC3)CC2)c([N+](=O)[O-])c1` : -24

Measured growth inhibition of `C[CH2][Sn]([CH2]C)([O]S(C)(=O)=O)[O]S(C)(=O)=O` : -27

----------
Test: NCI Yeast Anticancer Drug Screen. Data for the rad50 strain (AID 155);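 note: 0% = growth of vehicle-only cultures of the same strain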
Details: S. cerevisiae rad50 strain growth inhibition; at 50.0 µM (retest, dose inferred, filed as 5.0); hits give high values
The panel holds about 79,000 compounds, 15% with a hit somewhere; the sample as a whole holds those more often.
Listed here are compounds together with their documented growth inhibition.
// return numeric value only (unit: %, not printed)

Nc1nc(N)c(-c2ccc(Cl)c(Cl)c2)c(CP(Cl)(Cl)(Cl)Br)n1	80

Measured growth inhibition of `O=[N+]([O-])[O-].O=[N+]([O-])[O-].[Au].[Au].c1ccc([P-]c2ccccc2)cc1.c1ccc([P-]c2ccccc2)cc1` : 94

Measured growth inhibition of NC1=C(c2nc(-c3ccccc3)cs2)C(c2ccc(Br)cc2)c2c(c3ccccc3oc2=O)O1 (stereo not drawn) : 99

Measured growth inhibition of `O=C(Nc1cc(Cl)ccc1Cl)C(Cl)(Cl)Cl` : 41

Measured growth inhibition of CCOP(=O)(CC(C)P(=O)(OCC)OCC)OCC.C[CH2][Sn]([Cl])([Cl])[CH2]C (stereo not drawn) : 14

Measured growth inhibition of CC(=O)Nc1ccccc1[As](O[As](c1ccccc1)c1ccccc1NC(C)=O)c1ccccc1 (stereo not drawn) : 99

Measured growth inhibition of `C[As](c1ccc(Br)cc1)c1ccc(Br)cc1` : 1

----------
Assay: NCI Yeast Anticancer Drug Screen. Data for the rad50EPP+ strain (AID 151);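 note: 0% = growth of vehicle-treated control cultures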
Conditions: S. cerevisiae rad50 mutant strain, at 100.0 µM
The panel holds about 79,000 compounds, 15% with a hit somewhere; the sample as a whole holds those more often. Active and inactive are the calls of the source. No stated cut-off is given here; in the data, active means growth inhibition above about 70%; inactive means the rest.
Pick from true (1) (active), false (0) (inactive) when you respond.

[ask] Record request — test call for `c1ccc2cc3n[se]nc3cc2c1`
[reply] true (1)

[ask] Record request — test call for `NCCc1ccc(OCc2ccccc2)c(OCc2ccccc2)c1`
[reply] true (1)

[ask] Record request — test call for C/C(CCl)=N/NC1=NC(c2ccccc2Cl)P(=O)(NCCCNP2(=O)SC(N/N=C(/C)CCl)=NC2c2ccccc2Cl)S1 (stereo not drawn)
[reply] false (0)

[ask] Record request — test call for COC(=O)c1c(C)ccc2c(O)c3c(cc12)C(=O)c1c2c(cc(O)c1C3=O)C1(C)OC(C)(O2)C(O)C(N(C)C)C1O (stereo not drawn)
[reply] false (0)

----------
Assay: NCI Yeast Anticancer Drug Screen. Data for the mlh1 strain (AID 171);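 note: 0% = growth of vehicle-treated control cultures of the same strain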
Settings: S. cerevisiae mlh1 strain growth inhibition; at 100.0 µM; hits give high values
This is part of a sample that, as a whole, favours compounds with a hit. Of some 79,000 tested, about 15% had one in any assay.
quantity kind: growth inhibition (%)
// return numeric value only (unit: %, not printed)

Answered examples (3):
Cc1nc2ccccc2cc1C[N+]12CN3CN(CN(C3)C1)C2	46
OC1CCCC2CCC[N-]C12.OC1CCCC2CCC[N-]C12.[O]=[V][OH] (configuration not stated)	95
CCN(CC)CCBr	-1

Query compound follows.
Measured growth inhibition of `COc1ccc(OC)c(/C=C/[N+](=O)[O-])c1` : 98

----------
Listed here are molecules together with their documented growth inhibition.
Test: NCI Yeast Anticancer Drug Screen. Data for the cln2 rad14 strain (AID 165);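 note: 0% = growth equal to vehicle treated cultures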
Details: S. cerevisiae cln2 rad14 strain, at 5.0 µM (retest, dose inferred, filed as 0.5), hits give high values
About 79,000 compounds went through this panel and 15% of them were active in at least one assay; those are over-represented in the sample as a whole.
// return numeric value only (unit: %, not printed)

Answered examples (3):
C[n+]1c(/C=C/c2ccc(O)c3ncccc23)[se]c2ccccc21	11
O=c1oc2ccccc2c(O)c1C1c2c(c3ccccc3oc2=O)Oc2c1c(=O)oc1ccccc21	12
COc1cc2c3c(c1)-c1c(ccc(OC)c1OC)CC3N(CCCl)CC2 (centres undefined)	7

Query molecule follows.
Measured growth inhibition of `O=C(CCl)c1ccc(O)cc1` : 7

----------
Assay: NCI Yeast Anticancer Drug Screen. Data for the rad52 strain (AID 147);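 note: 0% = growth of vehicle-treated control cultures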
Conditions: S. cerevisiae rad52 mutant growth inhibition; at 100.0 µM; hits give high values
Protocol: Growth inhibition of yeast strains with defined genetic alterations is measured as a screen for potential anti-cancer activity. Selected strains with alterations in DNA damage repair or cell cycle control were exposed to compounds and growth inhibition was measured relative to vehicle treated controls. The strain used in this assay is rad52
About 79,000 compounds went through this panel and 15% of them were active in at least one assay; those are over-represented in the sample as a whole.
Label fulfilled when growth inhibition is at or above 90%; anything below gets not fulfilled.

The examples below pair each entry with its known result.
CCNCC(=O)O[C@]1(CC)C(=O)OCc2c1cc1n(c2=O)Cc2cc3ccccc3nc2-1	not fulfilled
c1ccc(N=c2nc(N3CCOCC3)ss2)cc1	fulfilled
COc1cc([C@@H]2c3cc4c(cc3C[C@@H]3COC(=O)C32)OCO4)cc(OC)c1O (stereo partly drawn)	fulfilled
C[CH2][Sn]1([CH2]C)[O]C2C(O)OC(CO)C(O)C2[O]1 (stereo not drawn)	not fulfilled
O=c1oc2ccccc2c(O)c1C(c1ccc2ccccc2c1)c1c(O)c2ccccc2oc1=O	fulfilled

[ask] Does `CC[PH+](CC)CC.CC[PH+](CC)CC.[Au]` have a reported growth inhibition of at least 90%?
[reply] fulfilled

[ask] Does CC1CCCN(CCc2ccccc2)CC1 (stereo not drawn) have a reported growth inhibition of at least 90%?
[reply] not fulfilled

----------
Assay: NCI Yeast Anticancer Drug Screen. Data for the bub3 strain (AID 167)
Conditions: S. cerevisiae bub3 mutant strain, at 11.0 µM, hits give high values
Method: Growth inhibition of yeast strains with defined genetic alterations is measured as a screen for potential anti-cancer activity. Selected strains with alterations in DNA damage repair or cell cycle control were exposed to compounds and growth inhibition was measured relative to vehicle treated controls. The strain used in this assay is bub3
The panel holds about 79,000 compounds, 15% with a hit somewhere; the sample as a whole holds those more often.
quantity kind: growth inhibition (%)
// return numeric value only (unit: %, not printed)

CCNC(=O)OCC1C2=C(C(=O)C(C)=C(N)C2=O)N2CC3C(N3C)C12OC (stereo not given)	10
O=S(=O)(O)c1ccc(Cl)cc1.[Cd]	6

Measured growth inhibition of COc1cc(C2c3cc4c(cc3[C@@H](Nc3ccc(N)cc3)C3COC(=O)[C@H]23)OCO4)cc(OC)c1O (stereo not given in full) : 92

----------
Test: NCI Yeast Anticancer Drug Screen. Data for the rad18 strain (AID 177)
Conditions: S. cerevisiae rad18 mutant growth inhibition; at 1.2 µM; hits give high values
Compounds without any hit were thinned out: in the full panel of roughly 79,000, 15% have a hit.
Listed here are compounds together with their documented growth inhibition.
// return numeric value only (unit: %, not printed)

CCc1cccc(C(C)C)c1NC1=C([n+]2ccc(C)cc2)C(=O)c2ccccc2C1=O	0
O=C1OC2C(O1)C1(Cl)C(Cl)=C(Cl)C2(Cl)C1(Cl)Cl (stereo not drawn)	-4

Query compound follows.
Measured growth inhibition of `C/C(=N\O)c1ccc2ccc3ccccc3c2c1` : 5
